Origin of values: patent US12134610B2

tested-system: human somatostatin receptor subtype 2 (Homo sapiens)
Construct: expressed in transfected cells
test-name: Functional cAMP assay for SSTR2 agonists (HTRF) in CHO-K1 cells
Format: cell-based
condition-set: CHO-K1 cells stably expressing human SST2, 20 min; read-out: hSST2 cAMP Avg EC50
pEC50: −log10 of the molar value.
pEC50 overview
outcome-measure: pEC50

{"compound": "CC[C@H](C)[C@@H]([C@@H](CC(=O)N1CCC[C@H]1[C@H](OC)[C@@H](C)C(=O)N[C@H](C)[C@@H](O)c1ccccc1)OC)N(C)C(=O)[C@@H](NC(=O)[C@H](C(C)C)N(C)C(=O)OCc1ccc(NC(=O)[C@H](CCCNC(N)=O)NC(=O)[C@@H](NC(=O)CCOCCC(=O)NCCNc2ncc(-c3cc(C)cc(F)c3)c(N3CCC(N)CC3)c2-c2nc3ccc(Cl)cc3[nH]2)C(C)C)c(O[C@@H]2O[C@H](CO)[C@@H](O)[C@H](O)[C@H]2O)c1)C(C)C [Compound 134]", "tested-system": "human somatostatin receptor subtype 2 (Homo sapiens)", "outcome-measure": "pEC50", "result-number": 9.74}
{"compound": "CC[C@H](C)[C@@H]([C@@H](CC(=O)N1CCC[C@H]1[C@H](OC)[C@@H](C)C(=O)N[C@H](C)[C@@H](O)c1ccccc1)OC)N(C)C(=O)[C@@H](NC(=O)[C@H](C(C)C)N(C)C(=O)OCc1ccc(NC(=O)[C@H](CCCNC(N)=O)NC(=O)[C@@H](NCCOCCOCCOCCOCCC(=O)NCCNc2ncc(-c3cc(C)cc(F)c3)c(N3CCC(N)CC3)c2-c2nc3ccc(Cl)cc3[nH]2)C(C)C)cc1)C(C)C [Compound 69]", "tested-system": "human somatostatin receptor subtype 2 (Homo sapiens)", "outcome-measure": "pEC50", "result-number": 9.60}
{"compound": "CC[C@H](C)[C@@H]([C@@H](CC(=O)N1CCC[C@H]1[C@H](OC)[C@@H](C)C(=O)N[C@H](C)[C@@H](O)c1ccccc1)OC)N(C)C(=O)[C@@H](NC(=O)[C@H](C(C)C)N(C)C(=O)OCc1ccc(NC(=O)[C@H](CCCNC(N)=O)NC(=O)[C@@H](NC(=O)CCOCCC(=O)NCCNc2ncc(-c3cc(C)cc(F)c3)c(N3CCC(N)CC3)c2-c2nc3ccc(Cl)cc3[nH]2)C(C)C)cc1C(N)=O)C(C)C [Compound 122]", "tested-system": "human somatostatin receptor subtype 2 (Homo sapiens)", "outcome-measure": "pEC50", "result-number": 9.74}
{"compound": "COc1cc2cc(c1Cl)N(C)C(=O)CC(OC(=O)[C@@H](C)N(C)C(=O)CCSSCCNC(=O)CN1CCN(CC(=O)O)CCN(CC(=O)NCCNc3ncc(-c4cc(C)cc(F)c4)c(N4CCC(N)CC4)c3-c3nc4ccc(Cl)cc4[nH]3)CC1)[C@]1(C)OC1[C@@H](C)C1C[C@@](O)(NC(=O)O1)[C@H](OC)/C=C/C=C(\\C)C2 (some centres unmarked) [Compound 9]", "tested-system": "human somatostatin receptor subtype 2 (Homo sapiens)", "outcome-measure": "pEC50", "result-number": 9.89}
{"compound": "CC[C@H](C)[C@@H]([C@@H](CC(=O)N1CCC[C@H]1[C@H](OC)[C@@H](C)C(=O)N[C@H](C)[C@@H](O)c1ccccc1)OC)N(C)C(=O)[C@@H](NC(=O)[C@H](C(C)C)N(C)C(=O)OCc1ccc(NC(=O)[C@H](C)NC(=O)[C@@H](NC(=O)[C@H](CCC(=O)O)NC(=O)CCCCCC(=O)NCCNc2ncc(-c3cc(C)cc(F)c3)c(N3CCC(N)CC3)c2-c2nc3ccc(Cl)cc3[nH]2)C(C)C)cc1C(=O)NCCN)C(C)C [Compound 120]", "tested-system": "human somatostatin receptor subtype 2 (Homo sapiens)", "outcome-measure": "pEC50", "result-number": 9.72}

----------
tested-system: human somatostatin receptor subtype 2 (Homo sapiens, UniProt P30874)
Construct: expressed in transfected cells
Sequence (P30874 whole entry): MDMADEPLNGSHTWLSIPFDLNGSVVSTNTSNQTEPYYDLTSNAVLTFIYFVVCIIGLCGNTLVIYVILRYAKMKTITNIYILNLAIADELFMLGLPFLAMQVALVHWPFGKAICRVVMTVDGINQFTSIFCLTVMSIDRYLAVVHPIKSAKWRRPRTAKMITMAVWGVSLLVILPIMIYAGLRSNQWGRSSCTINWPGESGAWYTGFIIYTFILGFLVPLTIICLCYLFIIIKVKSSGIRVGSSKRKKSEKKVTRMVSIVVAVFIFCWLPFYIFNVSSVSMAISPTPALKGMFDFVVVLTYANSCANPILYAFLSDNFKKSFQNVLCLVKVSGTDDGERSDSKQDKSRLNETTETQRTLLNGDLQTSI
test-name: Functional cAMP assay for SSTR2 agonists (HTRF) in CHO-K1 cells
Assay type: cell-based
condition-set: CHO-K1 cells stably expressing human SST2, 20 min; read-out: hSST2 cAMP Avg EC50
pEC50: −log10 of the molar value.

{"compound": "CC[C@H](C)[C@@H]([C@@H](CC(=O)N1CCC[C@H]1[C@H](OC)[C@@H](C)C(=O)N[C@H](C)[C@@H](O)c1ccccc1)OC)N(C)C(=O)[C@@H](NC(=O)[C@H](C(C)C)N(C)C(=O)OCc1ccc(NC(=O)[C@H](CCCNC(N)=O)NC(=O)[C@@H](NC(=O)CCOCCC(=O)NCCNc2ncc(-c3cc(C)cc(F)c3)c(N3CCC(N)CC3)c2-c2nc3ccc(Cl)cc3[nH]2)C(C)C)c(O[C@@H]2O[C@H](C(=O)O)[C@@H](O)[C@H](O)[C@H]2O)c1)C(C)C [Compound 132]", "pEC50": 9.70}

----------
pEC50 overview
tested-system: human somatostatin receptor subtype 2 (Homo sapiens)
Construct: expressed in transfected cells
test-name: Functional cAMP assay for SSTR2 agonists (HTRF) in CHO-K1 cells
Assay type: cell-based
condition-set: CHO-K1 cells stably expressing human SST2, 20 min; read-out: hSST2 cAMP Avg EC50
pEC50: −log10 of the molar value. Starred links: 1 amine or outer side, 2 acyl side, 3 side chain; linkers in the order of their positions; H or OH if unused. Non-standard residues stand in square brackets, D forms with d. Residues, ends and D or L forms follow the SMILES beside them. *: point of attachment. X1 = Cc1cc(F)cc(-c2cnc(NCCNC(=O)CCOCCC(=O)*)c(-c3nc4ccc(Cl)cc4[nH]3)c2N2CCC(N)CC2)c1; Dolaproine = CO[C@@H]([C@@H]1CCCN1)[C@@H](C)C(=O)O; Dil = CC[C@H](C)[C@H](NC)[C@@H](CC(=O)O)OC; PABC = O=C(OCc1ccc(N[*:1])cc1)[*:2]; X2 = C[C@@H](N*)[C@@H](O)c1ccccc1; Cya = N[C@@H](CS(=O)(=O)O)C(=O)O; Cit = NC(=O)NCCC[C@H](N)C(=O)O; NMeV = CN[C@H](C(=O)O)C(C)C

{"compound": "CC[C@H](C)[C@@H]([C@@H](CC(=O)N1CCC[C@H]1[C@H](OC)[C@@H](C)C(=O)N[C@H](C)[C@@H](O)c1ccccc1)OC)N(C)C(=O)[C@@H](NC(=O)[C@H](C(C)C)N(C)C(=O)OCc1ccc(NC(=O)[C@H](CCCNC(N)=O)NC(=O)[C@@H](NC(=O)[C@H](CC(=O)O)NC(=O)[C@H](CC(=O)O)NC(=O)[C@H](CC(=O)O)NC(=O)CCOCCC(=O)NCCNc2ncc(-c3cc(C)cc(F)c3)c(N3CCC(N)CC3)c2-c2nc3ccc(Cl)cc3[nH]2)C(C)C)cc1)C(C)C [Compound 108] (X1-DDDV[Cit][PABC][NMeV]V[Dil][Dolaproine]-X2)", "tested-system": "human somatostatin receptor subtype 2 (Homo sapiens)", "pEC50": 8.72}
{"compound": "CC[C@H](C)[C@@H]([C@@H](CC(=O)N1CCC[C@H]1[C@H](OC)[C@@H](C)C(=O)N[C@H](C)[C@@H](O)c1ccccc1)OC)N(C)C(=O)[C@@H](NC(=O)[C@H](C(C)C)N(C)C(=O)OCc1ccc(NC(=O)[C@H](CCCNC(N)=O)NC(=O)[C@@H](NC(=O)[C@H](CS(=O)(=O)O)NC(=O)[C@H](CCC(=O)O)NC(=O)CCOCCC(=O)NCCNc2ncc(-c3cc(C)cc(F)c3)c(N3CCC(N)CC3)c2-c2nc3ccc(Cl)cc3[nH]2)C(C)C)cc1)C(C)C [Compound 105] (X1-E[Cya]V[Cit][PABC][NMeV]V[Dil][Dolaproine]-X2)", "tested-system": "human somatostatin receptor subtype 2 (Homo sapiens)", "pEC50": 9.74}
{"compound": "CC[C@H](C)[C@@H]([C@@H](CC(=O)N1CCC[C@H]1[C@H](OC)[C@@H](C)C(=O)N[C@H](C)[C@@H](O)c1ccccc1)OC)N(C)C(=O)[C@@H](NC(=O)[C@H](C(C)C)N(C)C(=O)OCc1ccc(NC(=O)[C@H](CCCNC(N)=O)NC(=O)[C@@H](NC(=O)CCOCCOCCOCCOCCC(=O)NCCNc2ncc(-c3cc(C)cc(F)c3)c(N3CCC(N)CC3)c2-c2nc3ccc(Cl)cc3[nH]2)C(C)C)c(O[C@@H]2O[C@H](C(=O)O)[C@@H](O)[C@H](O)[C@H]2O)c1)C(C)C", "tested-system": "human somatostatin receptor subtype 2 (Homo sapiens)", "pEC50": 9.70}
{"compound": "CCC(C)C(C(CC(=O)N1CCCC1C(OC)C(C)C(=O)NC(C)C(O)c1ccccc1)OC)N(C)C(=O)C(NC(=O)C(C(C)C)N(C)C(=O)OCc1ccc(NC(=O)[C@H](CCCNC(N)=O)NC(=O)[C@@H](NC(=O)CCOCCOCCOCCOCCOCCOCCC(=O)NCCNc2ncc(-c3cc(C)cc(F)c3)c(N3CCC(N)CC3)c2-c2nc3ccc(Cl)cc3[nH]2)C(C)C)cc1)C(C)C (stereo in doubt)", "tested-system": "human somatostatin receptor subtype 2 (Homo sapiens)", "pEC50": 9.44}
